Experiment: in vivo
Conditions: mouse, in vivo, ip, 75 mg/kg/day
observable: mortality (%)

>>> readout_number("Cc1[nH]c(C=C2C(=O)Nc3ccccc32)c(C)c1CCC(=O)O")
0

====

Assay: physchem
Conditions: 30% peg 300 in buffer, pH 8.2, organic solvent or mixture
observable: solubility (mg/mL)

>>> readout_number("Cc1[nH]c(C=C2C(=O)Nc3ccccc32)c(C)c1CCC(=O)O [Example 1]")
32

====

Assay: physchem
Conditions: 2% polysorbate-80
observable: solubility

>>> result("Cc1[nH]c(C=C2C(=O)Nc3ccccc32)c(C)c1CCC(=O)O [Example 1]")
"< 13 mg/mL"
